What melting point was measured for each of the following?

Sample answers from the record:
Provide only the value of recorded melting point for COC(=O)C(NC(=O)c1cc(-c2ccsc2)nc2ccccc12)c1ccccc1 (centres unmarked)
169 to 171 °C

Please report the measured melting point for COC(=O)C(NC(=O)c1cc(-c2cc[nH]c2)nc2ccccc12)c1ccccc1 (centres unmarked)
202 to 204 °C

State its melting point for this compound: CCC(NC(=O)c1c(N2C(=O)c3ccccc3C2=O)c(-c2ccccc2)nc2ccccc12)c1ccccc1 (centres unmarked)
201 to 202 °C

Specify reported melting point for the compound shown: COC(=O)C(NC(=O)c1cc(-c2ccccc2OC)nc2ccccc12)c1ccccc1 (centres unmarked)
124 to 125 °C

Look up and state reported melting point for "CC[C@H](NC(=O)c1c(OC)c(-c2ccccc2)nc2ccccc12)c1ccccc1"
132 to 134 °C

Would you be so kind as to report melting point for each listed record?
1. COC(=O)[C@H](NC(=O)c1cc(-c2ccccc2)nc2ccccc12)C1=CCC=CC1
2. COC(=O)C(NC(=O)c1cc(-c2ccc(C)cc2)nc2ccccc12)c1ccccc1 (centres unmarked)
3. COC(=O)C(NC(=O)c1cc(-c2nccs2)nc2ccccc12)c1ccccc1 (centres unmarked)

1: 120 to 122 °C; 2: 172 to 174 °C; 3: 209 to 211 °C

---

Kindly supply the reported melting point values for the records listed here.

Batch lookup, melting point per entry.
1. COC(=O)C(NC(=O)c1cc(-c2ccc[nH]2)nc2ccccc12)c1ccccc1 (centres unmarked) [Example 53]
2. COC(=O)C(NC(=O)c1cc(-c2ccc3c(c2)OCO3)nc2ccccc12)c1ccccc1 (centres unmarked) [Example 63]
3. O=C(NC(c1ccccc1)C(F)(F)F)c1cc(-c2ccccc2)nc2ccccc12 (centres unmarked) [Example 46]
4. COC(=O)C(NC(=O)c1cc(-c2ccccc2C)nc2ccccc12)c1ccccc1 (centres unmarked) [Example 59]
5. CC[C@H](NC(=O)c1c(C)c(-c2ccccc2)nc2ccc(Br)cc12)c1ccccc1 [Example 42]
6. O=C(NC(c1ccccc1)c1ccccc1)c1cc(-c2ccccc2)nc2ccccc12 [Example 84]
7. CC(C)C(NC(=O)c1cc(-c2ccccc2)nc2ccccc12)c1ccccc1 (centres unmarked) [Example 72]
8. O=C(NC1(c2ccccc2)CCCC1)c1cc(-c2ccccc2)nc2ccccc12 [Example 61]

181 to 182 °C
186 to 187 °C
180 to 181 °C
180 to 182 °C
179 to 180 °C
182 to 184 °C
165 to 166 °C
164 to 165 °C

---

I'd appreciate it if you could supply melting point values for the items below.
Where a name gives a salt, the structure may show the parent alone.

Examples with answers:
Quickly give me recorded melting point for O=C(NC(CO)c1ccccc1)c1cc(-c2ccccc2)nc2ccccc12 (centres unmarked)
117 to 119 °C

Read the entry "C[C@H](O)[C@H](NC(=O)c1cc(-c2ccccc2)nc2ccccc12)c1ccccc1" and write its reported melting point.
204 to 205 °C

Give the reported melting point for this molecule. CCCc1c(-c2ccccc2)nc2ccccc2c1C(=O)NC(CC)c1ccccc1 (centres unmarked)
149 to 151 °C

State its melting point: CCC(NC(=O)c1c(OC)c(-c2ccccc2)nc2ccccc12)c1ccccc1 (centres unmarked)
164 to 165 °C

Supply reported melting point belonging to this molecule: CCC(NC(=O)c1cc(-c2ccccc2)nc2ccccc12)c1ccc(Cl)cc1 (centres unmarked)
177 to 178 °C

// for each molecule in input: emit melting point
1. COC(=O)C(c1ccccc1)N(C)C(=O)c1cc(-c2ccccc2)nc2ccccc12 (centres unmarked)
2. COC(=O)[C@H](NC(=O)c1cc(-c2ccccc2)nc2ccccc12)c1ccc(O)cc1 (as salt: HCl)

1: 128 to 129 °C; 2: 140 °C (dec.)
